# measurement target: CYP3A4 (Homo sapiens, UniProt P08684)
# Sequence (P08684 whole entry): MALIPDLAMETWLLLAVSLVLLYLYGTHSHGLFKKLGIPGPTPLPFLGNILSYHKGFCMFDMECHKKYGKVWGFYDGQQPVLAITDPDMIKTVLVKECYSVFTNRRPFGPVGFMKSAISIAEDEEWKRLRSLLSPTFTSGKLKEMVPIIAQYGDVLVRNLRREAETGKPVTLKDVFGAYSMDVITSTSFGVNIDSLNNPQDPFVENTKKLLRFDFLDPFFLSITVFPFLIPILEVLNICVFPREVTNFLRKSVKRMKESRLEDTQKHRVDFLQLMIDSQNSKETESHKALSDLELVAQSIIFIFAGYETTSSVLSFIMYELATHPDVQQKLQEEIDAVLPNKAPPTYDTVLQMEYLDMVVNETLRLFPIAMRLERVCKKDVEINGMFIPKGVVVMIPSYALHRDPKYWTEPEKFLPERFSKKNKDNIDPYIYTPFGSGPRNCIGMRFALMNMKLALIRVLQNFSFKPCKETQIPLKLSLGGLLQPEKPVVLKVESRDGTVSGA
reported metric: Ki

CCCCCc1cc(O)c(C/C=C(\C)CCC=C(C)C)c(O)c1 [CBG, Cannabigerol] ... 10 to 20 µM

====

# measurement target: CYP2D6 (Homo sapiens, UniProt P10635)
# Sequence (P10635 whole entry): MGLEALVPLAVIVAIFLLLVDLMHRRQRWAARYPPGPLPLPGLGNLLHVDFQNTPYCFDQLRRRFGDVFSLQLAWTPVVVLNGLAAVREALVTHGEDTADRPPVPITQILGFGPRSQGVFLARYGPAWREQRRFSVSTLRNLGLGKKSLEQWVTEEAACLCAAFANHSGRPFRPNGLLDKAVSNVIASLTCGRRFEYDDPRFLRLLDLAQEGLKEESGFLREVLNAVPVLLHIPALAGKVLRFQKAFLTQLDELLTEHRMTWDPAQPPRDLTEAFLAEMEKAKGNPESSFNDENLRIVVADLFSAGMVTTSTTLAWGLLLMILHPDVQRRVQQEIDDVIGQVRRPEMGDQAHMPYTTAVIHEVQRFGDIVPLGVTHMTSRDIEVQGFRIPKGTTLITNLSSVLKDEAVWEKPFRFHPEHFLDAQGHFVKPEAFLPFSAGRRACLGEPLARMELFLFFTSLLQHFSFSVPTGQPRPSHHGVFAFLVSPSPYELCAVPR
reported metric: Ki

CCCCCc1cc(O)c(C/C=C(\C)CCC=C(C)C)c(O)c1 ... 10 to 20 µM

====

# Format: in vivo, mouse
# settings: female, mouse, in vivo
reported metric: concentration at 0.5 h

CCCCCc1cc(O)c(C/C=C(\C)CCC=C(C)C)c(O)c1 [CBG, Cannabigerol] ... 0.5 to 0.7 µM
